Reference source: the supplement of paper PMC11908140

B1: library; numbered along this chain (parent)
chain: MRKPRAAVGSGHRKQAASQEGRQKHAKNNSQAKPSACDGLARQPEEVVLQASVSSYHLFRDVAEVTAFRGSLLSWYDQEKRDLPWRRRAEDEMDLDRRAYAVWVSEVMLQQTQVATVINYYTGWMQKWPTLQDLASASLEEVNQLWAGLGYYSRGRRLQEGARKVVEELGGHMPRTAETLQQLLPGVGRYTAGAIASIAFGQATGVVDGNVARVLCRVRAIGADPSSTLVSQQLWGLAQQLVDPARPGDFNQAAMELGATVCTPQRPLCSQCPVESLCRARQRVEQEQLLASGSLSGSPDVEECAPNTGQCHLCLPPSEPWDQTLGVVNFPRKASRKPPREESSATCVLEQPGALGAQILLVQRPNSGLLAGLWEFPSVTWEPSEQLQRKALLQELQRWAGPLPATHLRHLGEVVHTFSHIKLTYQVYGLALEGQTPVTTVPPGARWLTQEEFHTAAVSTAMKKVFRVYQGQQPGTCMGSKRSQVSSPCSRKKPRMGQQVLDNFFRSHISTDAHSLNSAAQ

variants of: B1; assay: 8OG:A repair function score (normalized; synonymous = 0, nonsense = -1) (normalized log-likelihood score); higher = more repair activity (WT-like); details: with 8OG:A DNA repair reporter (GFP) in HEK-293 MUTYH KO cells;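 further: cells sorted at 72 h after reporter transfection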
Label 0 (no) if 8OG:A repair function score falls below -0.2; label 1 (yes) in every other case.

The following variants have reported results that may help.
1. I359R; 0 (no)
2. R163F; 1 (yes)
3. G497W; 1 (yes)
4. C347A; 1 (yes)
5. V438C; 1 (yes)
6. R97K; 1 (yes)
7. A280V; 1 (yes)
8. P338A; 1 (yes)
9. Q435R; 1 (yes)
10. E341T; 1 (yes)

Task: # check: 8OG:A repair function score of G326C is greater than or equal to -0.2
Result: 0 (no)

Task: # check: 8OG:A repair function score of R246P is greater than or equal to -0.2
Result: 0 (no)

Task: # check: 8OG:A repair function score of A405L is greater than or equal to -0.2
Result: 1 (yes)

Task: # check: 8OG:A repair function score of Q499H is greater than or equal to -0.2
Result: 1 (yes)

Task: # check: 8OG:A repair function score of E106L is greater than or equal to -0.2
Result: 0 (no)

Task: # check: 8OG:A repair function score of G356Y is greater than or equal to -0.2
Result: 1 (yes)

Task: # check: 8OG:A repair function score of T449I is greater than or equal to -0.2
Result: 0 (no)

Task: # check: 8OG:A repair function score of K422A is greater than or equal to -0.2
Result: 1 (yes)
